Biological target: Serine/threonine-protein kinase mTOR (Homo sapiens)
measure name: IC50
Please answer in the form of a number followed by its unit of measurement.

Here's what some known entries look like.
> print(dat)
                                chem.smiles                              study.target  measure.name  recorded.value
1  Cn1cc(/C=C2\Oc3cccc(O)c3C2=O)c2c(-c3ccccc3)ccnc21  Serine/threonine-protein kinase mTOR (Homo sapiens)          IC50         3.45 nM
2  CN1CCN(c2ccnc3c2c(/C=C2\Oc4cccc(O)c4C2=O)cn3C)CC1  Serine/threonine-protein kinase mTOR (Homo sapiens)          IC50         2.75 nM
3  Cn1cc(/C=C2\Oc3cccc(O)c3C2=O)c2c(N3CCC(C(N)=O)CC3)ccnc21  Serine/threonine-protein kinase mTOR (Homo sapiens)          IC50         0.72 nM

Kindly consider the entry below.
Query: Look at this compound and give its reported IC50. "Cn1cc(/C=C2\Oc3cc(O)cc(O)c3C2=O)c2c(-c3ccccc3)ccnc21"
Response: 0.46 nM

* * *

Molecular target: Fibroblast growth factor receptor 1 (Homo sapiens)
Sequence (P11362 whole entry): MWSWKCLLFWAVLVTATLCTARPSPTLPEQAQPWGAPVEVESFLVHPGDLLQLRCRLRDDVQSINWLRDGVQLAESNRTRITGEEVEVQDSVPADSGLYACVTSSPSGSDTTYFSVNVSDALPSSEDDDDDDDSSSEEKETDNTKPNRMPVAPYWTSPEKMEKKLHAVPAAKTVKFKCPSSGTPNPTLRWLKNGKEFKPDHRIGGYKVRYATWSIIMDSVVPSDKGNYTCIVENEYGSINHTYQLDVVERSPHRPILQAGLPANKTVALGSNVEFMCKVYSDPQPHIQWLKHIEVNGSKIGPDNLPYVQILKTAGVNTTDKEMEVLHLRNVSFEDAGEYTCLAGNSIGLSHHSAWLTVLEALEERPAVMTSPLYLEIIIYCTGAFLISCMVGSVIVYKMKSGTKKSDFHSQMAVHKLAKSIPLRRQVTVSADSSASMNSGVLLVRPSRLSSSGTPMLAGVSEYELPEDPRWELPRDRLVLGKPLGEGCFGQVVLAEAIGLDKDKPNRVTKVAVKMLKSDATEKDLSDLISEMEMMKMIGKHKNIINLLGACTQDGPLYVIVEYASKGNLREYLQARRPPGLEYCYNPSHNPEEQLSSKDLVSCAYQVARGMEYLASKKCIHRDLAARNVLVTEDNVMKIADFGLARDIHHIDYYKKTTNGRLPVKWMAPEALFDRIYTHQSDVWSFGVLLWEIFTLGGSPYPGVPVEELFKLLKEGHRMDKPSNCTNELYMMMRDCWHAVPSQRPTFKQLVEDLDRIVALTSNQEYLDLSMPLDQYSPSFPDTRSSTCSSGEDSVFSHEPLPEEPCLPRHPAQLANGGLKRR
measure name: IC50 (nM)
Answers are plain numbers, in nM.

Query: Look at this molecule and give its reported IC50. "Cn1cc(/C=C2\Oc3cccc(O)c3C2=O)c2c(-c3ccc(C(=O)NCCO)cc3)ccnc21"
Response: 50

* * *

Target: Cyclin-dependent kinase 1 (Homo sapiens, UniProt P06493)
Sequence (P06493 whole entry): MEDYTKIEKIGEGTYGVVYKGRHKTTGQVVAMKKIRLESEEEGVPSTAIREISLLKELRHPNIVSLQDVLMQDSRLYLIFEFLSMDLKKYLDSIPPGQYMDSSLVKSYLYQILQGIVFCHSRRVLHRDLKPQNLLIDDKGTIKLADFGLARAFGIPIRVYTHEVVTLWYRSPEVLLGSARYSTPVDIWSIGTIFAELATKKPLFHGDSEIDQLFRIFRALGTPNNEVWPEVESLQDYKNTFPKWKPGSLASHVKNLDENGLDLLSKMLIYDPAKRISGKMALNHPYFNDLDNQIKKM
measure name: IC50 (µM)
One number for each entry, in µM.

Query: // lookup IC50 | system=Cyclin-dependent kinase 1 (Homo sapiens, UniProt P06493) | key= "Cn1cc(/C=C2\Oc3cccc(O)c3C2=O)c2c(-c3ccc(C(=O)NCCO)cc3)ccnc21"
Response: 39.2

* * *

Target: Glycogen synthase kinase-3 beta (Homo sapiens, UniProt P49841)
Sequence (P49841 whole entry): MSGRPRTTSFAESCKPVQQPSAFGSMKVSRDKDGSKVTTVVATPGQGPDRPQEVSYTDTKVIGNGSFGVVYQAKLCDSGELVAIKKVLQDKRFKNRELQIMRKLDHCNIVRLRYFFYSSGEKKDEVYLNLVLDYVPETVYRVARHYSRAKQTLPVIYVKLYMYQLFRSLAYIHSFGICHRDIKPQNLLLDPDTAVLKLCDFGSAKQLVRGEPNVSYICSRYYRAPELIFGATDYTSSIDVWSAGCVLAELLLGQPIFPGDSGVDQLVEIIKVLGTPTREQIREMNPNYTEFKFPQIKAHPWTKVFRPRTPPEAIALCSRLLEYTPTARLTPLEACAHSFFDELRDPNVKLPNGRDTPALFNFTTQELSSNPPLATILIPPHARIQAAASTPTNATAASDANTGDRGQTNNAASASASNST
measure name: pIC50
Numbers only, as −log10 of the molar value.

Query: Look at this compound and give its reported pIC50. "Cn1cc(/C=C2\Oc3cccc(O)c3C2=O)c2c(-c3ccc(C(=O)NCCO)cc3)ccnc21"
Response: 5.23

* * *

Target: Tyrosine-protein kinase HCK (Homo sapiens, UniProt P08631)
Sequence (P08631 whole entry): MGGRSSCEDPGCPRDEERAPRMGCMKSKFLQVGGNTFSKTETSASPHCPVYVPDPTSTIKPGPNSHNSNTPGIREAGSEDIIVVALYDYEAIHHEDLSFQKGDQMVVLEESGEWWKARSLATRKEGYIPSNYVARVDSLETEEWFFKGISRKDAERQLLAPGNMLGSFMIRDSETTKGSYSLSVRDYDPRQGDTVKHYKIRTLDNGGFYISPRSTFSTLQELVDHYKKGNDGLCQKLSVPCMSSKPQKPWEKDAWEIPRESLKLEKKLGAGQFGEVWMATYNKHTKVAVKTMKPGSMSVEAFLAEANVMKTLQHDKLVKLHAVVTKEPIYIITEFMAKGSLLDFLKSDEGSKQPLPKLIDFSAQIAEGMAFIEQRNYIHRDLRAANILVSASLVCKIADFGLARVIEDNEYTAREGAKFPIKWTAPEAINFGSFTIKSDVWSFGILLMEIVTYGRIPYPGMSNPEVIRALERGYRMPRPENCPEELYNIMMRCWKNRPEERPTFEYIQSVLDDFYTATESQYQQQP
measure name: pIC50
Numbers only, as −log10 of the molar value.

Query: Look at this molecule and give its reported pIC50. "Cn1cc(/C=C2\Oc3cccc(O)c3C2=O)c2c(-c3ccc(C(=O)NCCO)cc3)ccnc21"
Response: 4.57

* * *

Target: Cyclin-dependent kinase 2 (Homo sapiens, UniProt P24941)
Test: Inhibition of CDK2
measure name: pIC50
Answers are plain numbers, as −log10 of the molar value.

Query: Look at this compound and give its reported pIC50. "Cn1cc(/C=C2\Oc3cccc(O)c3C2=O)c2c(-c3ccc(C(=O)NCCO)cc3)ccnc21"
Response: 4.45

* * *

Species: Homo sapiens
Experiment: Selectivity ratio of IC50 for PI3Kalpha to IC50 for mTOR
If the reported Ratio IC50 equals or exceeds 70, assign class 1. If not, assign class 0.

Answered cases to consult:
> print(dat)
                                chem.smiles    group
1  CN1CCN(c2ccnc3c2c(/C=C2\Oc4cc(O)cc(O)c4C2=O)cn3C)CC1  class 0
2  CCn1cc(/C=C2\Oc3cccc(O)c3C2=O)c2c(-c3ccc(C(=O)N4CCN(CCO)CC4)cc3)ccnc21  class 1
3  Cn1cc(/C=C2\Oc3cccc(O)c3C2=O)c2c(-c3ccc(C(=O)N4CC5CCC(C4)O5)cc3)ccnc21  class 1

Query: Evaluate "Cn1cc(/C=C2\Oc3cccc(O)c3C2=O)c2c(N3CCC(C(N)=O)CC3)ccnc21" : Ratio IC50 at minimum 70?
Response: class 0

Query: Evaluate "Cn1cc(/C=C2\Oc3cccc(O)c3C2=O)c2c(N3CCC(C(=O)N4CCN(CCO)CC4)CC3)ccnc21" : Ratio IC50 at minimum 70?
Response: class 0

Query: Evaluate "Cn1cc(/C=C2\Oc3cccc(O)c3C2=O)c2c(-c3ccccc3)ccnc21" : Ratio IC50 at minimum 70?
Response: class 0

Query: Evaluate "Cn1cc(/C=C2\Oc3cc(O)cc(O)c3C2=O)c2c(-c3ccccc3)ccnc21" : Ratio IC50 at minimum 70?
Response: class 1

Query: Evaluate "CN1CCN(C(=O)C2CCN(c3ccnc4c3c(/C=C3\Oc5cccc(O)c5C3=O)cn4C)CC2)CC1" : Ratio IC50 at minimum 70?
Response: class 0

Query: Evaluate "Cn1cc(/C=C2\Oc3cccc(O)c3C2=O)c2c(N3CCC(N)CC3)ccnc21" : Ratio IC50 at minimum 70?
Response: class 0
